Provenance of the data: the supplement of paper PMC13380429

// cell viability lookup, one value per entry
test system: Calu-3; assay: cell viability relative to DMSO; higher = less toxic; details: 72 h; 1 nM
READOUT_NAME: cell viability (%)

| MOLECULE | OBSERVED_VALUE |
| --- | --- |
| Nc1cc(-c2ccncc2)c[nH]c1=O | 94.9 |
| CCCN(CCC)C1Cc2cc(OC)c(OC)cc2C1 | 96.9 |
| CC(=O)N[C@@H](CS)C(=O)O | 101 |
| Cc1ccccc1-c1cc(N2CCN(C)CC2)ncc1N(C)C(=O)C(C)(C)c1cc(C(F)(F)F)cc(C(F)(F)F)c1 | 94.8 |
| O=C(Nc1ccc(Br)cc1)c1cc(Br)cc(Br)c1O | 94.4 |
| Clc1ccc(N2CCN(Cc3c[nH]c4ncccc34)CC2)cc1 | 88.6 |
| CCN(CCCOc1ccc2c(Nc3cc(CC(=O)Nc4cccc(F)c4)[nH]n3)ncnc2c1)CCOP(=O)(O)O | 112 |
| CN1CCC(NC(=O)c2cc(-c3c(O)cc(O)cc3Oc3ccc([N+](=O)[O-])cc3)on2)CC1 | 93.7 |
| CCCC(=O)O[C@]1(C(=O)COC(C)=O)CC[C@H]2[C@@H]3C[C@H](F)C4=CC(=O)C=C[C@]4(C)[C@@]3(F)[C@@H](O)C[C@@]21C [difluprednate] | 106 |
| O=c1ccn([C@@H]2O[C@H](COP(=O)(O)OP(=O)(O)OP(=O)(O)O)[C@@H](O)[C@H]2O)c(=O)[nH]1 | 94.5 |
| NC(=O)c1cn(Cc2c(F)cccc2F)nn1 [rufinamide] | 101 |
| COc1cc(OC)cc(-c2ccc3c(-c4ccc(F)cc4)n[nH]c3n2)c1 | 99.5 |
| CC(C)/N=c1\cc2n(-c3ccc(Cl)cc3)c3ccccc3nc-2cc1Nc1ccc(Cl)cc1 | 101 |
| O=C(c1ccc(Cl)cc1)N(Cc1ccccc1)C1CCCCC1 | 105 |

* * *

test system: Caco-2; assay: cell viability relative to DMSO; higher = less toxic; details: 72 h; 10 nM
// cell viability lookup, one value per entry

| COMPOUND | cell viability (%) |
| --- | --- |
| Cc1nc(=O)c2cc(CN(C)c3ccc(C(=O)N[C@@H](CCC(=O)O)C(=O)O)s3)ccc2[nH]1 [raltitrexed] | 99 |
| CC(C)(C)NCC(O)COc1cccc2c1CCC(=O)N2 (configuration not stated) [carteolol] | 96.1 |
| CCO/N=C(\C(=O)N[C@@H]1C(=O)N2C(C(=O)[O-])=C(Sc3nc(-c4cc[n+](C)cc4)cs3)CS[C@H]12)c1nsc(NP(=O)(O)O)n1 [ceftaroline-fosamil] | 101 |
| CC1(C)OC[C@@H](COC(=O)CCc2ccc(OC[C@@H](O)CNCCNC(=O)N3CCOCC3)cc2)O1 [landiolol] | 103 |
| CN[C@@H]1[C@H](O[C@H]2[C@H](O[C@H]3[C@H](O)[C@@H](O)[C@H](NC(=N)N)[C@@H](O)[C@@H]3NC(=N)N)O[C@@H](C)[C@]2(O)CO)O[C@@H](CO)[C@H](O)[C@H]1O [dihydrostreptomycin] | 94.3 |
| CCC1(CC)C(=O)C=CNC1=O [pyrithyldione] | 93.1 |
| Cc1cccc(Oc2cnc(=O)[nH]c2)c1 [tolimidone] | 95.7 |
